- assay_info: self-splicing fitness, log relative to wild type (ln ratio); higher = more splicing; Tetrahymena group I intron in knt gene, E. coli kanamycin selection, DiMSum; sequences stand for … in CUCUCU…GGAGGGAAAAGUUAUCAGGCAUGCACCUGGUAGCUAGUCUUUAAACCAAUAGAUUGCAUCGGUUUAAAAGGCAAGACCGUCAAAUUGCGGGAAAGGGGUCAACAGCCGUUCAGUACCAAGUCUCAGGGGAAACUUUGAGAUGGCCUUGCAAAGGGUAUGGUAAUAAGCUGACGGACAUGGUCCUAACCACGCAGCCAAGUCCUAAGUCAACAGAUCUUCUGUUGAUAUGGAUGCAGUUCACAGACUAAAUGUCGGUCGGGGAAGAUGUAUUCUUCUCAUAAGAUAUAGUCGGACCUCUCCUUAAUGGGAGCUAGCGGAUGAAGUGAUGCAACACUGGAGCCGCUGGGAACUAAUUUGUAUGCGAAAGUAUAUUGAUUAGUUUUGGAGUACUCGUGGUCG;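 also: selection with 25 µg/mL kanamycin versus none on LB agar overnight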
- setup_conditions: 37 °C
Collected self-splicing fitness (ln) values appear next to each entry.
test_readout: self-splicing fitness (ln)

# sequence_code, test_readout, endpoint_result
rows = [
    ("GCCGAGCAAUAUUACGCUUA", "self-splicing fitness (ln)", -0.233),
    ("CCGUAGCAAUAUUACGUCUA", "self-splicing fitness (ln)", -1.92),
    ("CGGCAGCAAUAUUACGACUU", "self-splicing fitness (ln)", -0.196),
    ("CUCCAGCAAUAUUACGCUGA", "self-splicing fitness (ln)", -2.65),
    ("CUACAGCAAUAUUACGCUAA", "self-splicing fitness (ln)", -2.29),
    ("CUUCAGCAAUAUUACGAAUG", "self-splicing fitness (ln)", -0.456),
    ("GGGUAGCAAUAUUACGCCGG", "self-splicing fitness (ln)", -2.03),
    ("AAAUAGCAAUAUUACGAUGU", "self-splicing fitness (ln)", -0.875),
    ("UCCCAGCAAUAUUACGCAAA", "self-splicing fitness (ln)", -0.641),
    ("UAACAGCAAUAUUACGUGUG", "self-splicing fitness (ln)", -0.692),
    ("GCGCAGCAAUAUUACGCAGU", "self-splicing fitness (ln)", -1.04),
    ("ACUCAGCAAUAUUACGAUAC", "self-splicing fitness (ln)", -0.656),
    ("CUACAGCAAUAUUACGAGAC", "self-splicing fitness (ln)", -2.59),
    ("AACCAGCAAUAUUACGUAAC", "self-splicing fitness (ln)", -1.15),
    ("UAUAAGCAAUAUUACGGGAG", "self-splicing fitness (ln)", -1.64),
    ("UGUAAGCAAUAUUACGUUUA", "self-splicing fitness (ln)", -1.51),
    ("GCCAAGCAAUAUUACGACGG", "self-splicing fitness (ln)", -2.55),
    ("GAUCAGCAAUAUUACGGGUC", "self-splicing fitness (ln)", -3.05),
    ("UCGUAGCAAUAUUACGCAAG", "self-splicing fitness (ln)", -2.12),
    ("AUGGAGCAAUAUUACGGCGU", "self-splicing fitness (ln)", 0.224),
    ("CAUUAGCAAUAUUACGAAAA", "self-splicing fitness (ln)", -1.46),
    ("GACUAGCAAUAUUACGGAUU", "self-splicing fitness (ln)", -0.588),
    ("UUGGAGCAAUAUUACGAGUA", "self-splicing fitness (ln)", -2.45),
    ("CCUUAGCAAUAUUACGGCCA", "self-splicing fitness (ln)", -1.69),
    ("AUCUAGCAAUAUUACGGGGU", "self-splicing fitness (ln)", -2.98),
    ("UAACAGCAAUAUUACGUGUC", "self-splicing fitness (ln)", -2.35),
    ("GACUAGCAAUAUUACGGGAG", "self-splicing fitness (ln)", 0.0641),
    ("CCCUAGCAAUAUUACGGCAA", "self-splicing fitness (ln)", -3.15),
    ("UAGAAGCAAUAUUACGACUG", "self-splicing fitness (ln)", -0.0265),
    ("CAACAGCAAUAUUACGGGAC", "self-splicing fitness (ln)", -2.99),
    ("CAUUAGCAAUAUUACGAAGU", "self-splicing fitness (ln)", -1.37),
    ("GUCAAGCAAUAUUACGCGUU", "self-splicing fitness (ln)", -0.761),
    ("UUAAAGCAAUAUUACGUACG", "self-splicing fitness (ln)", 0.746),
    ("GGAGAGCAAUAUUACGGGGC", "self-splicing fitness (ln)", -2.71),
]
